# target_or_test_system: N(G),N(G)-dimethylarginine dimethylaminohydrolase 1 (Homo sapiens)
# Sequence (O94760 whole entry): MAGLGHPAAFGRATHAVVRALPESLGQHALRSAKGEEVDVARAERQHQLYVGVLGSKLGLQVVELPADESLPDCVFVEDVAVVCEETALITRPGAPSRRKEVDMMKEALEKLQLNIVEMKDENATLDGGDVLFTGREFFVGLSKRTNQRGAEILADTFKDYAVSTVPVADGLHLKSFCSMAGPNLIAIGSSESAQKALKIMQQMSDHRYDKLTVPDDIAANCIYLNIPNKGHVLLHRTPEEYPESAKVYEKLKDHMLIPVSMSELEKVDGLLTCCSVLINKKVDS
# assay_info: Inhibition of 6xHis-tagged recombinant human DDAH1 expressed in Escherichia coli BL21 cells using NMMA as substrate measured after 30 mins by colder reagent based microplate reader assay
pKi: −log10 of the molar value.
// pKi lookup, one value per entry
readout_kind: pKi

[[record]]
record_smiles = "COCCC(=N)NCCC[C@H](N)C(=O)O"
numeric_readout = 5.05

[[record]]
record_smiles = "COCCNC(=N)NCCC(C)C"
numeric_readout = 2.56

[[record]]
record_smiles = "N=C(CCl)NCCC[C@H](N)C(=O)O"
numeric_readout = 5.89

[[record]]
record_smiles = "C=CCCNC(=N)NCCCCN"
numeric_readout = 4.23

[[record]]
record_smiles = "COCCNC(=N)NCCC[C@H](N)C(=O)NS(C)(=O)=O"
numeric_readout = 6.00

[[record]]
record_smiles = "COCCNC(=N)NCCCCC(=O)O"
numeric_readout = 3.31

[[record]]
record_smiles = "COCC(=N)NCCC[C@H](N)C(=O)O"
numeric_readout = 4.14

[[record]]
record_smiles = "COCC(=N)NCCCCN"
numeric_readout = 3.01

